Apical domain:HSA reference
Target: T1, apical domain of CD71 (Screen 3: 'cynomolgus apical domain of human CD71') (cynomolgus (as 'cynomolgus apical …))
T1 construct: domain: apical domain; Species is told ambiguously
Experiment: primary ELISA screen, RLU on apical domain over RLU on HSA
State the answer as a number, implicitly in ratio.

Here are 3 binders together with their reported answers.
[
  {
    "Binder": "CD71-binding FN3 domain of SEQ ID NO: 338 (designed binder, not shown: C-terminal poly-histidine tag added to each FN3 domain) MSLPAPKNLVVSRVTEDSARLSWTAPDAAFDSFEIGYFENLYLGEAIVLTVPGSERSYDLTGLKPGTEYCVYICGVKGGRDSMPLSAIFTT",
    "Numeric result": 125
  },
  {
    "Binder": "CD71-binding FN3 domain of SEQ ID NO: 342 (designed binder, not shown: C-terminal poly-histidine tag added to each FN3 domain) MSLPAPKNLVVSRVTEDSARLSWTAPDAAFDSFFIGYLEPQPPGEAIVLTVPGSERSYDLTGLKPGTEYNVTIQGVKGGFPSEPLIANFTT",
    "Numeric result": 13
  },
  {
    "Binder": "CD71-binding FN3 domain of SEQ ID NO: 335 (designed binder, not shown: C-terminal poly-histidine tag added to each FN3 domain) MSLPAPKNLVVSRVTEDSARLSWTAPDAAFDSFFIGYLEPQPPGEAIDLYVPGSERSYDLTGLKPGTEYNVTIQGVKGGFPSLPLVATFTT",
    "Numeric result": 103
  }
]

Fill in: Apical domain:HSA of CD71-binding FN3 domain of SEQ ID NO: 339 (designed binder, not shown: C-terminal poly-histidine tag added to each FN3 domain) MSLPAPKNLVVSRVTEDSARLSWTAPDAAFDSFEIGYWEMSYYGEAIVLTVPGSERSYDLTGLKPGTEYGVSIGGVKGGRWSLPLSAIFTT is ___ 690
